Measured target: MAGI2_2, Q86UL8
Sequence (Q86UL8 410-522): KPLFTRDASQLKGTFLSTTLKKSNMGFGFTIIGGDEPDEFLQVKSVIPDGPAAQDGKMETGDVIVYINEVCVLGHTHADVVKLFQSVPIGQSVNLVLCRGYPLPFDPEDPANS
Experiment description: holdup assay
Set-up: key: below the threshold = too weak to quantify, mostly under pKd 3.1 to 4
Assay setup: plain residues with an end cap or a label only (N-terminal biotin on a linker: ado-ado)
I'd be grateful if you could share measured pKd for these entries.
Number only, please.

-- ask Tell me the measured pKd of QHKTQLQTLI [BPIFA2, Q96DR5] , please.
-- reply 4.43

-- ask Okay, and QGPVETESVV [SLC45A4, Q5BKX6] ?
-- reply 3.78

-- ask Subsequent entry: TACCHSETVV [TGFA, P01135]
-- reply 4.74

-- ask Another binder to look at: PRISRSQSEL [CCDC134, Q9H6E4]
-- reply 3.85

-- ask Field entry: VKPQVSESKL [ACOT8, O14734]
-- reply 3.64

-- ask Also check PKRSFIESNV [TANC1, Q9C0D5]
-- reply 4.81
